Target: human IL-21R expressed on cells (human, UniProt Q9HBE5 20-538)
Sequence (Q9HBE5 20-538 limits assumed): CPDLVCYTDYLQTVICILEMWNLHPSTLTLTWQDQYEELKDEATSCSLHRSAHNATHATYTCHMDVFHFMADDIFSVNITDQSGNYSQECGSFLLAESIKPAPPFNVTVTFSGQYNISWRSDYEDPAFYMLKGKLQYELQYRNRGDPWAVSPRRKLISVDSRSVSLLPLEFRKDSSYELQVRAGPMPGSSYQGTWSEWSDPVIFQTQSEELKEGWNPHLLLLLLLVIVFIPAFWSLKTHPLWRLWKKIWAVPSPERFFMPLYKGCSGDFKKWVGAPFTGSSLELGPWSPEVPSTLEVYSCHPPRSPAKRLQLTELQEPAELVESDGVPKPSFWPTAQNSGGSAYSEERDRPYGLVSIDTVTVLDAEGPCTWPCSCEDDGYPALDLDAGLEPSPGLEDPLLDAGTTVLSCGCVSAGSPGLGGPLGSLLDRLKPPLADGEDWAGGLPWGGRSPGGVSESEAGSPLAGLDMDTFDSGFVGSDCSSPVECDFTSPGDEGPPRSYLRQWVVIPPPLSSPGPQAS
Experiment: cell-based or functional assay
measured attribute: IC50, Human IL-21R-BaF3 Neutralization Assay
Form entry: enter the amount, then its unit.

scFv L18 (scFv) scFv: QVQLQESGPGLVKTSETLSLTCAVSGYSISSGYYWGWIRQPPGKGLEWIGSISHTGNTYYNPPLKSRVTISVDTSKNQFSLKLSSVTAADTAVYYCARGGGISRPEYWGKGTLVTVSSGGGGSGGGGSGGGGSALSSELTQDPPVSVALGQTVTLTCQGDSLRTYYASWYQQKSGQAPILLLYGKHKRPSGIPDRFSGSTSGDTASLTITGAQAEDEADYYCVTRSVKGNPHVLFGGGTQLTVL
3.7 nM

In one line, give reported IC50, Human IL-21R-BaF3 Neutralization Assay of the entry scFv L4 (scFv) scFv: QVQLQESGPGLVKTSETLSLTCAVSGYSISSGYYWGWIRQPPGKGLEWIGSISHTGNTYYNPPLKSRVTISVDTSKNQFSLKLSSVTAADTAVYYCARGGGISRPEYWGKGTLVTVSSGGGGSGGGGSGGGGSALSSELTQDPPVSVALGQTVTLTCQGDSLRTYYASWYQQKSGQAPILLLYGKHKRPSGIPDRFSGSTSGDTASLTITGAQAEDEADYYCSTRSSKGNPHVLFGGGTQLTVL .
2.1 nM

In one line, give reported IC50, Human IL-21R-BaF3 Neutralization Assay of the entry scFv L25 (scFv) scFv: QVQLQESGPGLVKTSETLSLTCAVSGYSISSGYYWGWIRQPPGKGLEWIGSISHTGNTYYNPPLKSRVTISVDTSKNQFSLKLSSVTAADTAVYYCARGGGISRPEYWGKGTLVTVSSGGGGSGGGGSGGGGSALSSELTQDPPVSVALGQTVTLTCQGDSLRTYYASWYQQKSGQAPILLLYGKHKRPSGIPDRFSGSTSGDTASLTITGAQAEDEADYYCTTRSNKGNPHVLFGGGTQLTVL .
3.7 nM
